Documented switch fluorescence ratio across a set of sequences
system: ATP; experiment: switch fluorescence ratio, 500 uM ATP over buffer (Cy3 cluster intensity, sum of 5 cycles each) (fold (ratio)); higher = stronger signal-on switching upon ATP binding; sequences stand for … in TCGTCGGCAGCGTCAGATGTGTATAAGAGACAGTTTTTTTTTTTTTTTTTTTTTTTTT…TC; settings: aptamer strand: ATP DNA aptamer (quencher-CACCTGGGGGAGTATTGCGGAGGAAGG + anchor), 100 nM annealed; ATP concentration: 500 uM;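 further: ATP exposure 15 min at 22 °C before imaging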
// no unit, no text: just the number

In the examples that follow, each entry is paired with its recorded switch fluorescence ratio.
- Entry sequence: "CTAAAGATCG"
  switch fluorescence ratio: 1.03
- Entry sequence: "TAAAAGTG"
  switch fluorescence ratio: 0.961
- Entry sequence: "GTTGTAATCA"
  switch fluorescence ratio: 0.98
- Entry sequence: "ATGTATAGCC"
  switch fluorescence ratio: 0.995
- Entry sequence: "TTTCGTGTGG"
  switch fluorescence ratio: 1.01
- Entry sequence: "CTCGCGTTAA"
  switch fluorescence ratio: 1.11
- Entry sequence: "ATTTCATGTG"
  switch fluorescence ratio: 0.985
- Entry sequence: "AAATGGGTGA"
  switch fluorescence ratio: 1.05
- Entry sequence: "TTATATTTAT"
  switch fluorescence ratio: 1.03
- Entry sequence: "AGCAAGTTGT"
  switch fluorescence ratio: 1.03

Sample GGTGTTAGTC — what was its switch fluorescence ratio?
1.02

Entry AAATTATTCG : reported switch fluorescence ratio = ?
1.03

So what's the measured switch fluorescence ratio for this one? ATGAGAATTT
1.01

# query: switch fluorescence ratio of entry CAATTGTACG
1

What does the record list as switch fluorescence ratio for GTGTGTTGAT ?
0.989

Please look up its switch fluorescence ratio: GAAAGAAAAA
1.09

State the recorded switch fluorescence ratio for this entry: TTGCAATTCG
3.05

Form field: reported switch fluorescence ratio of TAAGTGCTGG
1.01

Which switch fluorescence ratio value is on record for AGAACAAACC ?
1.08

Quick one: switch fluorescence ratio for TTAAGCAATT ?
1.36

From: the supplement of paper PMC10126150
